Tested on: TDF
TEST_SUMMARY: cell number relative to DMSO (% of DMSO); higher = more cells (less growth inhibition / toxicity)
TEST_SETTINGS: concentration: 10 µM; 24 h
Let's look at some compounds and their measured cell number.
MEASUREMENT_NAME: cell number

compound="CC(=O)NC(CSCC=C(C)CCC=C(C)CCC=C(C)C)C(=O)O (stereo not drawn) [Acetyl-farnesyl-cysteine]" test_value=104
compound="COc1cc(Cc2cnc(N)nc2N)cc(OC)c1OC [Trimethoprim]" test_value=95.9
compound="CCOC(=O)c1ncn2c1CN(C)C(=O)c1cc(F)ccc1-2 [Flumazenil]" test_value=97.3
compound="CC(C)(C)NCC(O)COc1nsnc1N1CCOCC1.O=C(O)C=CC(=O)O [(S)-Timolol maleate]" test_value=105
compound="O=S(=O)(NCc1ccccn1)c1ccc(Br)c2ccccc12 [4-bromo-N-(2-pyridinylmethyl)-1-naphthalenesulfonamide]" test_value=99.2
compound="Cl.Cl.OCCN1CCN(CCCN2c3ccccc3Sc3ccc(C(F)(F)F)cc32)CC1 [Fluphenazine.2HCl]" test_value=107
compound="CC[C@H](C(=O)Nc1ccccc1N1CCCC1)c1ccccc1 [(2S)-2-Phenyl-N-[2-(1-pyrrolidinyl)phenyl]butanamide]" test_value=103
compound=CC1(C)CC(NC(=O)C(=O)Nc2ccc(Cl)cc2)CC(C)(C)N1 test_value=107

###

Test system: TDF
TEST_SUMMARY: cell number relative to DMSO (% of DMSO); higher = more cells (less growth inhibition / toxicity)
TEST_SETTINGS: concentration: 10 µM; 24 h
MEASUREMENT_NAME: cell number

compound="NC1(C(=O)O)CCc2cc(C(=O)O)ccc21 (centres undefined)" test_value=113
compound="COc1ccc(C=Cc2cc(O)cc(OC3OC(CO)C(O)C(O)C3O)c2)cc1O (centres undefined) [Rhapontin]" test_value=104
compound="Cc1cnc(C(=O)NCCc2ccc(S(=O)(=O)NC(=O)NC3CCCCC3)cc2)cn1 [Glipizide]" test_value=107
compound="Nc1ncnc2c1ncn2C1OC(CO)C(O)C1O (centres undefined) [Adenosine]" test_value=109
compound="CC12CCc3occc3C1CCC13CC(=O)C(CCC12)C3 (centres undefined) [16-Oxocafestol]" test_value=97.5
compound="CC12CCC3c4ccc(O)cc4CCC3C1CCC2=O (centres undefined) [Estrone]" test_value=99.9
compound="C(=Cc1ccccc1)CN1CCN(C(c2ccccc2)c2ccccc2)CC1 [Cinnarizine]" test_value=74.1
compound="CCCCCC=CCC=CC=CC(O)CC=CCCCC(=O)O (centres undefined)" test_value=99.8
compound="CC(C=CC1=C(C)CCCC1(C)C)=CC=CC(C)=CC(=O)O [13-cis Retinoic acid]" test_value=104

###

System: TDF
TEST_SUMMARY: H1.0 immunofluorescence intensity relative to DMSO (% of DMSO); higher = stronger H1.0 induction, active = 120 or more
TEST_SETTINGS: concentration: 10 µM; 24 h
Classify by measured H1.0 immunofluorescence intensity: True if it is equal to or exceeds 100, False if it is smaller.

compound="CN1CCC(c2c(O)cc(O)c3c(=O)cc(-c4ccccc4Cl)oc23)C(O)C1 (stereo not given)" classification=True
compound="CCCCCCCCCCCCCCC(O)C(O)C(N)CO (stereo not given)" classification=True
compound="CC(CN1c2ccccc2Sc2ccccc21)N(C)C.Cl (stereo not given) [Promethazine.HCl]" classification=False
compound="CCCCCC(O)C=CC1C(O)CC2OC(=CCCCC(=O)[O-])CC21.[Na+] (stereo not given)" classification=False
compound=NC(N)=NCCC[C@H](N)C(=O)O classification=False
compound="Cc1ccccc1C(OCCN(C)C)c1ccccc1.O=C(O)CC(O)(CC(=O)O)C(=O)O (stereo not given) [Orphenadrine citrate]" classification=False
compound=CNNCc1ccc(C(=O)NC(C)C)cc1 classification=False
compound="NS(=O)(=O)c1cc2c(cc1Cl)NC(C1CC3C=CC1C3)NS2(=O)=O (stereo not given) [Cyclothiazide]" classification=True
compound="CC1CCCC(C)N1NC(=O)c1ccc(Cl)c(S(N)(=O)=O)c1 (stereo not given) [Clopamide]" classification=False
compound="CCCCCC(O)C=CC=CCCCCCCCCCC(=O)O (stereo not given)" classification=False
compound=Nc1nc(=O)c2ncn(COC(CO)CO)c2[nH]1 classification=False
compound="C=CCc1ccccc1OCC(O)CNC(C)C.Cl (stereo not given) [Alprenolol.HCl]" classification=False
compound="CCCCCC(O)C=CC1C2CC(CO2)C1CC=CCCCC(=O)O (stereo not given)" classification=False
compound="NC(N)=NC(=O)c1nc(Cl)c(N2CCCCCC2)nc1N [5-(N,N-hexamethylene)amiloride]" classification=True
